Kindly state inhibition at 3 µM for each of the entries shown.
Target: Human CaV2.2 channels (Homo sapiens, UniProt Q00975)
Construct: expressed in transfected cells
Sequence (Q00975 whole entry): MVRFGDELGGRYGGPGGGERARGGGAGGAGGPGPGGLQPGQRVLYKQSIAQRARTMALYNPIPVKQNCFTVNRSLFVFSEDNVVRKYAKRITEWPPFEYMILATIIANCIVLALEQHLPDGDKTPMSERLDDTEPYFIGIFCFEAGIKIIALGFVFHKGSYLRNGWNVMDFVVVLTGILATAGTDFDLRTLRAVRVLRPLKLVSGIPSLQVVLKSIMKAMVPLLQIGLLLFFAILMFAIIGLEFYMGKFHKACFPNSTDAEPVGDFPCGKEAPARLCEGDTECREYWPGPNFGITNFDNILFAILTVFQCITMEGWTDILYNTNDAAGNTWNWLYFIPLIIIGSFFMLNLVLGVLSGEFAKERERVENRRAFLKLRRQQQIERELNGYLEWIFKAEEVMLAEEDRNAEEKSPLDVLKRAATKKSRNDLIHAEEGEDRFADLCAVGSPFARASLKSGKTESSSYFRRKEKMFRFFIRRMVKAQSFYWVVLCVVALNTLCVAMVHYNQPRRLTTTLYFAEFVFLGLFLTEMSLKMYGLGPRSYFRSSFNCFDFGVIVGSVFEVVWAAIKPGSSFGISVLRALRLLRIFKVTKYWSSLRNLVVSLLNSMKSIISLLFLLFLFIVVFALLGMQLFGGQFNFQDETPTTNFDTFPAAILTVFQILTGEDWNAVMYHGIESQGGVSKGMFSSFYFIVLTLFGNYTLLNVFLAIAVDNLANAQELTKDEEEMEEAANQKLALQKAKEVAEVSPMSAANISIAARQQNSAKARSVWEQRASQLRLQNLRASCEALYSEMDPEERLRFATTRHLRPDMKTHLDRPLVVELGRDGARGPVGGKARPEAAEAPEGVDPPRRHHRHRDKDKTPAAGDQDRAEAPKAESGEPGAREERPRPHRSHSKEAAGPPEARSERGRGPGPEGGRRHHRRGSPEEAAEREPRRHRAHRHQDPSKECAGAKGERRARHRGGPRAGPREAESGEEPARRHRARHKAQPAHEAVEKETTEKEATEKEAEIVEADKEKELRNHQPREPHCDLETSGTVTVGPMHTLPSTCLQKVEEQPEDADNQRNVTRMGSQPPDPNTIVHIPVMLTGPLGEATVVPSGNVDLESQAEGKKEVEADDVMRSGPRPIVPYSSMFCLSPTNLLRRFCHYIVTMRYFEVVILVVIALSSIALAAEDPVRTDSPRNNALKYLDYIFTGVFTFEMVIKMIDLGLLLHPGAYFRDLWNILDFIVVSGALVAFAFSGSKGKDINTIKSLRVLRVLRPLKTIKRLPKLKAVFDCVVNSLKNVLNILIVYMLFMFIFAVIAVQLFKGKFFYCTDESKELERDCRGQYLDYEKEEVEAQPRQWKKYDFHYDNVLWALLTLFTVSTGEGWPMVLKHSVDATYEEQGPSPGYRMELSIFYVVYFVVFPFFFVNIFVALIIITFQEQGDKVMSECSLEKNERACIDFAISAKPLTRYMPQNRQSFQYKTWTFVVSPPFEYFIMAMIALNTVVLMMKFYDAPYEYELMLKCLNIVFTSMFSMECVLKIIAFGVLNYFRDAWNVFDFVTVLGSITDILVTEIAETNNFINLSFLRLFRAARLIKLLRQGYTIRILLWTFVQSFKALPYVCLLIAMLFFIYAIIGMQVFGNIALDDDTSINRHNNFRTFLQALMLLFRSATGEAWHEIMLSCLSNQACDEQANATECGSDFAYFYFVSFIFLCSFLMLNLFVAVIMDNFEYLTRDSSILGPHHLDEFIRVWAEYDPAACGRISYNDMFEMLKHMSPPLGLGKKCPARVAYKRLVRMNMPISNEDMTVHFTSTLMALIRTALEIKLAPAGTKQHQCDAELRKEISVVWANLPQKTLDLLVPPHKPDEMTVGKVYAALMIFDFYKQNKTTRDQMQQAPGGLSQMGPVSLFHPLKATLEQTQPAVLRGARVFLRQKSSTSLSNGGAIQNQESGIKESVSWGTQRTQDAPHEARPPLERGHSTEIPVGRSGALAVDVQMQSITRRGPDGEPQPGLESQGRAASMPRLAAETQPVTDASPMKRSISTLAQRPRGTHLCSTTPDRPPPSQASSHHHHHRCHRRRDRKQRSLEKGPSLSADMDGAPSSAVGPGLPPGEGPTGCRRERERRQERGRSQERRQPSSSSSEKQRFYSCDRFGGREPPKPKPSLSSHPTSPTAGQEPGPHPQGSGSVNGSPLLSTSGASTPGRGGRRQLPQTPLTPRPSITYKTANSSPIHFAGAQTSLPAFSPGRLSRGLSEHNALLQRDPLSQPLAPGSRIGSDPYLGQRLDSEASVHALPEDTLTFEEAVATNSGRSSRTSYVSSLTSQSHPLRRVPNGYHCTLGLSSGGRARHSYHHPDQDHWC
Sequence (P54289 25-1103, further chain): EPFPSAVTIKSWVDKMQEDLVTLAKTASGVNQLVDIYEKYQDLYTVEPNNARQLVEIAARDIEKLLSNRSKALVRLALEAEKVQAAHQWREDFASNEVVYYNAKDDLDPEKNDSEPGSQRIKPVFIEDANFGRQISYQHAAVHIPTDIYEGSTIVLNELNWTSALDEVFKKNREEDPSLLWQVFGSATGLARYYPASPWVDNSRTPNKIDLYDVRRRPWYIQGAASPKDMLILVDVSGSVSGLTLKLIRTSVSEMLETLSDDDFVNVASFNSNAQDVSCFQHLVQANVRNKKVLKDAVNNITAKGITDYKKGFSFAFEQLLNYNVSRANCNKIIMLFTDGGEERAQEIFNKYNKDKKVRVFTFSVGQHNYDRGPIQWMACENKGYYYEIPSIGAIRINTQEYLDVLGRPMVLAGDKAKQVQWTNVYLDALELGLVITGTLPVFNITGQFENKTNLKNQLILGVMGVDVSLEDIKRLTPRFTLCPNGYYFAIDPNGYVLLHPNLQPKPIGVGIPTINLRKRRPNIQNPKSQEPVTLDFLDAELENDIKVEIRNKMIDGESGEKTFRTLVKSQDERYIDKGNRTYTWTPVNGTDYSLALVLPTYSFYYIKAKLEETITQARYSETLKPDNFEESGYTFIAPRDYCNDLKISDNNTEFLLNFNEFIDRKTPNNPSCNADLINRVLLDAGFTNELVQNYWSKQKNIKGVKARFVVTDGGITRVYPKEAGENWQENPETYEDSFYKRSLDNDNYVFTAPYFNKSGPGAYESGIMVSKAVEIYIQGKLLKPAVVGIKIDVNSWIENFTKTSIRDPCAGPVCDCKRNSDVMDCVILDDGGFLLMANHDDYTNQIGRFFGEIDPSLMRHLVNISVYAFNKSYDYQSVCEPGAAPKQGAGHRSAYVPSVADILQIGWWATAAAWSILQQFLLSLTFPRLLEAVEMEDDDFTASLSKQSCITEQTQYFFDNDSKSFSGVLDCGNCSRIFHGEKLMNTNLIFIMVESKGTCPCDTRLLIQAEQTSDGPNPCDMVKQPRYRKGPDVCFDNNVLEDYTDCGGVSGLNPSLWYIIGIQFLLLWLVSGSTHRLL
Sequence (P54284 whole entry, further chain): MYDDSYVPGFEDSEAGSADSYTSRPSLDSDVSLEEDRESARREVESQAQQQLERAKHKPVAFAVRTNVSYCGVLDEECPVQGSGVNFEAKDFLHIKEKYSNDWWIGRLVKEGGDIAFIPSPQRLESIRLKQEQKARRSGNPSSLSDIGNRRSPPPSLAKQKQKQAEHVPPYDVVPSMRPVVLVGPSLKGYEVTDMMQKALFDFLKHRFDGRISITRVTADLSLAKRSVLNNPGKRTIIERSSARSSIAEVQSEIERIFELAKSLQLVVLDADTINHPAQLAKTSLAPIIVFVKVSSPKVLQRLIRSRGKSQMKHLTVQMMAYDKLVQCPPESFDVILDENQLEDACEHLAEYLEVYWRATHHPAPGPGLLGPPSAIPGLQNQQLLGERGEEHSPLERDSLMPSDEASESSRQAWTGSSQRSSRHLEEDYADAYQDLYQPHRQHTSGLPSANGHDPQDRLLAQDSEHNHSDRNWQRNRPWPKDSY
Experiment: Fluorescent assay for CaV2.2 channels using potassium depolarization to induce channel opening (FLIPR, Fluo-4)
Assay type: cell-based
Conditions: 3 μM test compound, 30 mM KCl, HEK293 cells stably expressing human CaV2.2; read-out: %-Inhib (CaV2.2) @3 μM @30 mM KCl

Respectfully, I request inhibition at 3 µM for each entry included below.
1. Cc1c(-c2ccc(Cl)cc2)c(C(=O)NCCS(C)(=O)=O)n(Cc2ccccc2)c1C(F)(F)F
2. Cc1c(-c2ccc(Cl)cc2)c(C(=O)N(C)C(C)(C)CO)n(Cc2ccccc2)c1C(F)(F)F
3. CN(CC1CCCO1)C(=O)c1c(-c2ccc(Cl)cc2)cc(C(F)(F)F)n1Cc1ccccc1 (centres unmarked)
4. O=C1CN(C(=O)c2c(-c3ccc(Cl)cc3)cc(C(F)(F)F)n2Cc2cccc(Cl)c2)CCN1
5. Cc1c(-c2ccc(Cl)cc2)c(C(=O)N(C)CCNS(C)(=O)=O)n(Cc2ccccc2)c1C(F)(F)F
6. Cc1c(-c2ccc(Cl)cc2)c(C(=O)N(C)CCO)n(Cc2ccccc2)c1C(F)(F)F

Response:
1: 75 to 95%; 2: > 95%; 3: > 95%; 4: > 95%; 5: > 95%; 6: > 95%

Respectfully, I request inhibition at 3 µM for each entry included below.
1. Cc1c(-c2ccc(F)cc2)c(C(=O)N2CC(F)(F)C2)n(Cc2ccccc2)c1C(F)(F)F
2. Cc1c(-c2ccc(Cl)cc2)c(C(=O)N(C)CCS(C)(=O)=O)n(Cc2cccc(Cl)c2)c1C(F)(F)F
3. CN(C)C(=O)c1c(-c2ccc(Cl)cc2)cc(C(F)(F)F)n1Cc1ccccc1

Response:
1. 75 to 95%
2. > 95%
3. 75 to 95%

Respectfully, I request inhibition at 3 µM for each entry included below.
1. Cc1c(-c2ccc(Cl)cc2)c(C(=O)N2CCOCC2)n(CCOc2ccc(F)cc2)c1C(F)(F)F
2. Cc1c(-c2ccc(Cl)cc2)c(C(=O)N(C)CC(C)(C)C)n(Cc2cccc(Cl)c2)c1C(F)(F)F
3. Cc1c(-c2ccc(Cl)c(F)c2)c(C(=O)N2CCOCC2)n(Cc2ccccc2)c1C(F)(F)F
4. Cc1c(-c2ccc(Cl)cc2F)c(C(=O)N2CC(F)(F)C2)n(Cc2ccccc2)c1C(F)(F)F
5. Cc1c(-c2ccc(Cl)cc2)c(C(=O)N2CCOC(=O)C2)n(Cc2ccccc2)c1C(F)(F)F

Response:
1. > 95%
2. 75 to 95%
3. 75 to 95%
4. 75 to 95%
5. 75 to 95%
